Target: HLA-A02:01 class I MHC molecule (human)
Protocol Details: competition with a radiolabeled reference peptide for purified MHC I, gel filtration; 'Affinity (nM)'
Setup Conditions: remark: other sources report otherwise
Measured IC50, listed per entry.
The response must be a number in nM with no trailing unit.

Would you please look over these solved cases?
>>> reported_result("YMANGSLLN")
4000
>>> reported_result("SLLNYLREM")
67.7

Prompt: Consider the binder MANGSLLNYL and give its measured IC50.
Response: 1010
